Values from patent US20230212221A1

measured.on: human mu-opioid receptor (hOPRM1) (Homo sapiens, UniProt P35372)
Construct: expressed in transfected cells
Sequence (P35372 whole entry): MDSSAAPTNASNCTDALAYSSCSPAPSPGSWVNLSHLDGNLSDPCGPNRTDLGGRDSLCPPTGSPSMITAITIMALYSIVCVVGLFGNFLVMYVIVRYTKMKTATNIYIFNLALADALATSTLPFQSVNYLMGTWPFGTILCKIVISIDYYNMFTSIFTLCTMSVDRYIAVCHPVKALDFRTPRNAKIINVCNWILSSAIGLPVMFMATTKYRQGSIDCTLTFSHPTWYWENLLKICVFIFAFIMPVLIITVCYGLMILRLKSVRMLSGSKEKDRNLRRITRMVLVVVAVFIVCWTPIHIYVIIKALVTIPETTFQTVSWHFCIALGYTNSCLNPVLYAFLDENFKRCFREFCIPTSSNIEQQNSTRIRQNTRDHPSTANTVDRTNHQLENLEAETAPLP
experiment.description: cell-based
condition.label: cAMP Hunter cells expressing hOPRM1, 20 μM forskolin, 30 minutes at 37° C., duplicate; read-out: EC50 (nM), inhibition of cAMP production
reported.metric: EC50 (nM)
Report as a plain number; the unit nM is understood.

Q: Query the reported EC50 for human mu-opioid receptor (hOPRM1) (Homo sapiens, UniProt P35372); item: NC(Cc1ccc(O)cc1)C(=O)NC1CCCCNC(=O)C(Cc2ccccc2)NC(=O)C(Cc2c[nH]c3ccccc23)NC1=O [CYT-1010, H-Tyr-c-[D-Lys-Trp-Phe]]
Ans: 0.0053

* * *

measured.on: human mu-opioid receptor (hOPRM1) (Homo sapiens, UniProt P35372)
Construct: expressed in transfected cells
experiment.description: cell-based
condition.label: PathHunter cells expressing hOPRM1, 90 minutes at 37° C., duplicate; read-out: EC50 (nM), beta-arrestin recruitment
reported.metric: EC50
State the result as a value with its unit after it.

Q: Quick one: EC50 for NC(Cc1ccc(O)cc1)C(=O)NC1CCCCNC(=O)C(Cc2ccccc2)NC(=O)C(Cc2c[nH]c3ccccc23)NC1=O [CYT-1010, H-Tyr-c-[D-Lys-Trp-Phe]] ?
Ans: 13.1 nM
